- TESTED_SYSTEM: Prostaglandin G/H synthase 2 (Ovis aries)
- PROTOCOL_TEXT: Inhibition of ovine COX2 using TMPD as substrate at 300 uM preincubated for 15 mins
Calls of active or inactive are those of the source. The rule behind the calls is not given here.
ASSAY_METRIC: inhibition

q: Find the recorded inhibition belonging to `CC(C)=CCC/C(C)=C/COc1ccc(/C=C/C(=O)O)cc1` and report it.
a: inactive

q: Then what about the compound COc1cc(/C=C/C(=O)O)ccc1OCC=C(C)C [BOROPINIC ACID] ?
a: inactive

q: Try this compound too: `CC(C)=CCC/C(C)=C/COc1ccc(/C=C/C(=O)O)cc1Cl`
a: inactive

q: Then this compound: `COc1cc(/C=C/C(=O)O)ccc1OC/C=C(\C)CCC=C(C)C`
a: 97.5%

q: Consider next the compound `CC(C)=CCOc1ccc(/C=C/C(=O)O)cc1` in the same way.
a: 74%

q: Another compound: `CC(C)=CCOc1ccc(/C=C/C(=O)O)cc1C`
a: inactive

q: Moving on to the next compound: `CC(C)=CCOc1ccc(/C=C/C(=O)O)cc1Cl`
a: inactive

Attention now shifts to the item below.
q: Need inhibition of `CC(C)=CCC/C(C)=C/COc1ccc(/C=C/C(=O)O)cc1C` , thanks.
a: inactive

---

- TESTED_SYSTEM: Prostaglandin G/H synthase 1 (Ovis aries) (UniProt P05979)
- Sequence (whole entry): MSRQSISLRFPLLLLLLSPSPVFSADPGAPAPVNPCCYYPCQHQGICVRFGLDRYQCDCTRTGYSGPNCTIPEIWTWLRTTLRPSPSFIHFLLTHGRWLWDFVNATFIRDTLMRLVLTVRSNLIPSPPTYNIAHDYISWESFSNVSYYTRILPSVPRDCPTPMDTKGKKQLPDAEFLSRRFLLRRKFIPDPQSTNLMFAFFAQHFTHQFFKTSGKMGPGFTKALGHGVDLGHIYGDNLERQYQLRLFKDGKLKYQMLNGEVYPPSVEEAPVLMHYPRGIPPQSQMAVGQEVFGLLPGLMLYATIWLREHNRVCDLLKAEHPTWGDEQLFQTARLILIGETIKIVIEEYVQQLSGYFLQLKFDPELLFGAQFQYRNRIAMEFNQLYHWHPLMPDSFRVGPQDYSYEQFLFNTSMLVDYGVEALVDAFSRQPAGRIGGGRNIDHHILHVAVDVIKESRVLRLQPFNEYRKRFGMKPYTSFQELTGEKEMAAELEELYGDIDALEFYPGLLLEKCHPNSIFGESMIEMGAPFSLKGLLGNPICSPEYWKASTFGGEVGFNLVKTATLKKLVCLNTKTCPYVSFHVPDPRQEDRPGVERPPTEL
- PROTOCOL_TEXT: Inhibition of ovine COX1 using TMPD as substrate preincubated for 15 mins
Active and inactive are the calls of the source. The calls are words filed in the database; no cut-off is given here.
ASSAY_METRIC: inhibition

Illustrative cases are given below, each with its answer.
q: What value of inhibition has been reported for the following compound? `CC(C)=CCOc1ccc(/C=C/C(=O)O)cc1C`
a: inactive

q: Also `CC(C)=CCOc1ccc(/C=C/C(=O)O)cc1Cl` ?
a: inactive

q: Now give it for `CC(C)=CCC/C(C)=C/COc1ccc(/C=C/C(=O)O)cc1` too.
a: inactive

q: Entry `CC(C)=CCC/C(C)=C/COc1ccc(/C=C/C(=O)O)cc1Cl` please
a: inactive

q: Then `CC(C)=CCC/C(C)=C/COc1ccc(/C=C/C(=O)O)cc1C` ?
a: inactive

More entries:
q: Can you look up the measured inhibition of `COc1cc(/C=C/C(=O)O)ccc1OCC=C(C)C` for me?
a: inactive
